- assayedSystem: Casein kinase I isoform gamma-1 (Homo sapiens) (UniProt Q9HCP0)
- Sequence (Q9HCP0 whole entry, looked up, canonical isoform): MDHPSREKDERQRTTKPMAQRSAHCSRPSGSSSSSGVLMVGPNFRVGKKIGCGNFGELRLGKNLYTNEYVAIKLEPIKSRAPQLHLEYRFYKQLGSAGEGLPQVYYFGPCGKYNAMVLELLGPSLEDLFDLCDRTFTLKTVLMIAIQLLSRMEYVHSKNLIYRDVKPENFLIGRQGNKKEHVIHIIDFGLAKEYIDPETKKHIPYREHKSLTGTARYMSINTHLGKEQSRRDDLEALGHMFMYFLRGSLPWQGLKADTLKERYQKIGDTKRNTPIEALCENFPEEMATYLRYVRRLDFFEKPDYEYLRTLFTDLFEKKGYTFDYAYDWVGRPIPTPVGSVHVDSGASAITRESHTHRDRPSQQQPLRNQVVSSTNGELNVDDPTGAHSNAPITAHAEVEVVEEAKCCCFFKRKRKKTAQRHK
- procedureText: Enzymatic radiometric [Km ATP] KinaseProfiler LeadHunter assay, kinase: CK1-gamma1, catalogue number: 14-711KP The assay has been performed by Eurofins Discovery.
- assayContext: ATP concentration 15.0 uM, Test compound concentration 10.0 uM
quantityKind: Activity (%)

{"smilesData": "C[C@H](C(=O)O)[C@@H](NC(=O)c1ncnc2[nH]ccc12)c1ccc(Br)cc1", "Activity (%)": 92}
{"smilesData": "CC(C)[C@H](Nc1ncnc2[nH]ccc12)c1ccc2c(c1)S(=O)(=O)CCC2", "Activity (%)": 97}
{"smilesData": "CC(C)[C@@H](Nc1ncnc2[nH]c(C(=O)N[C@@H]3CCN(C)C3)cc12)c1ccc2c(c1)S(=O)(=O)CCC2", "Activity (%)": 100}
{"smilesData": "CNCc1cc(-c2cc3c(N[C@@H](c4ccc5c(c4)S(=O)(=O)CCC5)C(C)C)ncnc3[nH]2)co1", "Activity (%)": 99}
{"smilesData": "COc1ccc([C@@H](Cc2nnn[nH]2)NC(=O)c2ncnc3[nH]ccc23)cc1", "Activity (%)": 95}
{"smilesData": "CC(C)[C@@H](Nc1ncnc2[nH]ccc12)c1ccc2c(c1)S(=O)(=O)CCC2", "Activity (%)": 102}
{"smilesData": "Cc1nn(C)cc1-c1cc2c(N[C@H](c3ccc4c(c3)S(=O)(=O)CCC4)C(C)C)ncnc2[nH]1", "Activity (%)": 99}
{"smilesData": "Cn1ncc(-c2cc3c(N[C@@H](c4ccc5c(n4)OCCO5)C(C)(C)C)ncnc3[nH]2)c1C#N", "Activity (%)": 94}
{"smilesData": "COc1ccc([C@H](Cc2nnn[nH]2)NC(=O)c2ncnc3[nH]ccc23)cc1", "Activity (%)": 94}
{"smilesData": "CNC(=O)Cn1cc(-c2cc3c(N[C@@H](c4ccc5c(c4)S(=O)(=O)CCC5)C(C)C)ncnc3[nH]2)cn1", "Activity (%)": 97}
{"smilesData": "CC(C)[C@H](Nc1ncnc2[nH]c(-c3cnn(C)c3C#N)cc12)c1ccc2c(n1)OCCO2", "Activity (%)": 100}
